Exercise: for every item that follows, state its recorded viability, T/C.
Test system: NCI-H1876 complex spheroid viability
Test: Anticancer human tumor NCI-H1876 cell line growth inhibition [LSD1];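 also: spheroids exposed to compounds for one week before readout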;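 as to viability, T/C: 100% = DMSO vehicle-treated spheroids so lower means fewer viable cells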
Details: second compound 10 µM; first compound 0.000949 µM; stronger effect = lower value
Numbers only, in %.

Use these answered entries as a reference point.
>  <compound>
CCc1c2c(nc3ccc(O)cc13)-c1cc3c(c(=O)n1C2)COC(=O)[C@]3(O)CC + NC1CCC(NC2CC2c2ccccc2)CC1

>  <assay-target>
NCI-H1876 complex spheroid viability

>  <viability, T/C (%)>
9.76

$$$$
>  <compound>
Nc1ncn(C2CC(O)C(CO)S2)c(=O)n1 (stereo unspecified) + NC1CC1c1ccc(-c2cccc(O)c2)cc1

>  <assay-target>
NCI-H1876 complex spheroid viability

>  <viability, T/C (%)>
107

$$$$
>  <compound>
Nc1ccn(C2OC(CO)C(O)C2(F)F)c(=O)n1 (stereo unspecified) + NC1CC1c1ccc(-c2cccc(O)c2)cc1

>  <assay-target>
NCI-H1876 complex spheroid viability

>  <viability, T/C (%)>
101

$$$$
>  <compound>
Nc1ccn(C2OC(CO)C(O)C2(F)F)c(=O)n1 (stereo unspecified) + NC1CCC(NC2CC2c2ccccc2)CC1

>  <assay-target>
NCI-H1876 complex spheroid viability

>  <viability, T/C (%)>
109

$$$$
>  <compound>
Nc1ncn(C2CC(O)C(CO)S2)c(=O)n1 (stereo unspecified) + NC1CCC(NC2CC2c2ccccc2)CC1

>  <assay-target>
NCI-H1876 complex spheroid viability

>  <viability, T/C (%)>
118

$$$$

Now consider the entry below.
Given item CCc1c2c(nc3ccc(O)cc13)-c1cc3c(c(=O)n1C2)COC(=O)[C@]3(O)CC + NC1CC1c1ccc(-c2cccc(O)c2)cc1 , the value recorded as its viability, T/C is 6.65

----------
Tested on: NCI-H1876 complex spheroid viability
Experiment: Anticancer human tumor NCI-H1876 cell line growth inhibition [LSD1];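 also: spheroids exposed to compounds for one week before readout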
Conditions: compound alone; run of 02/21/2022
pIC50: −log10 of the molar value.
experimental-readout: pIC50

Query NC1CC1c1ccc(-c2cccc(O)c2)cc1 (stereo unspecified) yields pIC50 of < 5.00

----------
Tested on: NCI-H1876 complex spheroid viability
Assay: Anticancer human tumor NCI-H1876 cell line growth inhibition [LSD1];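 also: spheroids exposed to compounds for one week before readout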;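 as to viability, T/C: 100% = DMSO vehicle-treated spheroids so lower means fewer viable cells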
Settings: second compound 0.316 µM; first compound 0.3 µM; stronger effect = lower value
experimental-readout: viability, T/C (%)
One number for each entry, in %.

Below: 6 compounds and their reported viability, T/C.
>  <compound>
O=C(C=Cc1cccc(S(=O)(=O)Nc2ccccc2)c1)NO + NC1CC1c1ccc(-c2cccc(O)c2)cc1

>  <experimental-readout>
viability, T/C

>  <observed>
16.8

$$$$
>  <compound>
CCc1c2c(nc3ccc(O)cc13)-c1cc3c(c(=O)n1C2)COC(=O)[C@]3(O)CC + NC1CC1c1ccc(-c2cccc(O)c2)cc1

>  <experimental-readout>
viability, T/C

>  <observed>
0.25

$$$$
>  <compound>
Nc1ncn(C2CC(O)C(CO)S2)c(=O)n1 (stereo unspecified) + NC1CC1c1ccc(-c2cccc(O)c2)cc1

>  <experimental-readout>
viability, T/C

>  <observed>
54.4

$$$$
>  <compound>
O=C(C=Cc1cccc(S(=O)(=O)Nc2ccccc2)c1)NO + NC1CCC(NC2CC2c2ccccc2)CC1

>  <experimental-readout>
viability, T/C

>  <observed>
27.1

$$$$
>  <compound>
NS(=O)(=O)OCC1CC(n2ccc3c(NC4CCc5ccccc54)ncnc32)CC1O (stereo unspecified) + NC1CC1c1ccc(-c2cccc(O)c2)cc1

>  <experimental-readout>
viability, T/C

>  <observed>
45.8

$$$$
>  <compound>
Nc1ncn(C2CC(O)C(CO)S2)c(=O)n1 (stereo unspecified) + NC1CCC(NC2CC2c2ccccc2)CC1

>  <experimental-readout>
viability, T/C

>  <observed>
67.8

$$$$

Give viability, T/C for each of the items listed below.
1. NS(=O)(=O)OCC1CC(n2ccc3c(NC4CCc5ccccc54)ncnc32)CC1O (stereo unspecified) + NC1CCC(NC2CC2c2ccccc2)CC1
2. Nc1ccn(C2OC(CO)C(O)C2(F)F)c(=O)n1 (stereo unspecified) + NC1CC1c1ccc(-c2cccc(O)c2)cc1
3. Nc1ccccc1NC(=O)c1ccc(CNC(=O)OCc2cccnc2)cc1 + NC1CCC(NC2CC2c2ccccc2)CC1
4. CCN(c1cc(-c2ccc(CN3CCOCC3)cc2)cc(C(=O)NCc2c(C)cc(C)[nH]c2=O)c1C)C1CCOCC1 + NC1CCC(NC2CC2c2ccccc2)CC1

Solution:
[39.4, 7.02, 26.3, 93.3]

Your task in this section: give viability, T/C for each listed record.
1. COc1cc(C2c3cc4c(cc3C(OC3OC5COC(C)OC5C(O)C3O)C3COC(=O)C23)OCO4)cc(OC)c1O (stereo unspecified) + NC1CCC(NC2CC2c2ccccc2)CC1
2. Nc1ccccc1NC(=O)c1ccc(CNC(=O)OCc2cccnc2)cc1 + NC1CC1c1ccc(-c2cccc(O)c2)cc1
3. Nc1ccn(C2OC(CO)C(O)C2(F)F)c(=O)n1 (stereo unspecified) + NC1CCC(NC2CC2c2ccccc2)CC1
4. CCN(c1cc(-c2ccc(CN3CCOCC3)cc2)cc(C(=O)NCc2c(C)cc(C)[nH]c2=O)c1C)C1CCOCC1 + NC1CC1c1ccc(-c2cccc(O)c2)cc1
5. COc1cc(C2c3cc4c(cc3C(OC3OC5COC(C)OC5C(O)C3O)C3COC(=O)C23)OCO4)cc(OC)c1O (stereo unspecified) + NC1CC1c1ccc(-c2cccc(O)c2)cc1
6. CCc1c2c(nc3ccc(O)cc13)-c1cc3c(c(=O)n1C2)COC(=O)[C@]3(O)CC + NC1CCC(NC2CC2c2ccccc2)CC1

Solution:
1. 22.3
2. 9.16
3. 9.66
4. 94.1
5. 10.9
6. 0.47

----------
Test system: NCI-H1876 complex spheroid viability
Experiment: Anticancer human tumor NCI-H1876 cell line growth inhibition [LSD1]; active means viability on the fitted dose curve at most 10% of control; inactive means the rest;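 also: spheroids exposed to compounds for one week before readout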
Settings: second compound 10 µM; first compound 10 µM
Return exactly one item of Yes for active, No for inactive

Worked cases, answers included:
>  <compound>
CC1(C)CCC(CN2CCN(c3ccc(C(=O)NS(=O)(=O)c4ccc(NCC5CCOCC5)c([N+](=O)[O-])c4)c(Oc4cnc5[nH]ccc5c4)c3)CC2)=C(c2ccc(Cl)cc2)C1 + NC1CC1c1ccc(-c2cccc(O)c2)cc1

>  <category-label>
Yes

$$$$
>  <compound>
CC1COCCN1c1cc(C2(S(C)(=N)=O)CC2)nc(-c2ccnc3[nH]ccc23)n1 (stereo not drawn) + NC1CC1c1ccc(-c2cccc(O)c2)cc1

>  <category-label>
No

$$$$

Kindly consider the entry below.
Problem: What is the recorded call for this compound in the test? CC1COCCN1c1cc(C2(S(C)(=N)=O)CC2)nc(-c2ccnc3[nH]ccc23)n1 (stereo not drawn) + NC1CCC(NC2CC2c2ccccc2)CC1
Solution: No

----------
Tested on: NCI-H1876 complex spheroid viability
Assay: Anticancer human tumor NCI-H1876 cell line growth inhibition [LSD1]; active means viability on the fitted dose curve at most 10% of control; inactive means the rest;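 also: spheroids exposed to compounds for one week before readout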
Conditions: second compound 0.316 µM; first compound 0.00316 µM
A correct response names exactly one class from active, inactive

>  <compound>
CC(C)CC(NC(=O)C(Cc1ccccc1)NC(=O)c1cnccn1)B(O)O (stereo unspecified) + NC1CC1c1ccc(-c2cccc(O)c2)cc1

>  <assay-target>
NCI-H1876 complex spheroid viability

>  <category-label>
active

$$$$
>  <compound>
CC(C)CC(NC(=O)CNC(=O)c1cc(Cl)ccc1Cl)B1OC(=O)CC(CC(=O)O)(C(=O)O)O1 (stereo unspecified) + NC1CCC(NC2CC2c2ccccc2)CC1

>  <assay-target>
NCI-H1876 complex spheroid viability

>  <category-label>
inactive

$$$$
>  <compound>
O=C(C=Cn1cnc(-c2cc(C(F)(F)F)cc(C(F)(F)F)c2)n1)NNc1cnccn1 + NC1CC1c1ccc(-c2cccc(O)c2)cc1

>  <assay-target>
NCI-H1876 complex spheroid viability

>  <category-label>
inactive

$$$$
>  <compound>
CC(C)CC(NC(=O)C(Cc1ccccc1)NC(=O)c1cnccn1)B(O)O (stereo unspecified) + NC1CCC(NC2CC2c2ccccc2)CC1

>  <assay-target>
NCI-H1876 complex spheroid viability

>  <category-label>
inactive

$$$$
>  <compound>
COc1cc(Nc2ncc3c(n2)-c2ccc(Cl)cc2C(c2c(F)cccc2OC)=NC3)ccc1C(=O)O + NC1CC1c1ccc(-c2cccc(O)c2)cc1

>  <assay-target>
NCI-H1876 complex spheroid viability

>  <category-label>
inactive

$$$$

Problem: What is the recorded call for this compound in the test? Cn1ncnc1C1c2n[nH]c(=O)c3cc(F)cc(c23)NC1c1ccc(F)cc1 (stereo unspecified) + NC1CC1c1ccc(-c2cccc(O)c2)cc1
Solution: inactive

Problem: Name the outcome recorded for COc1cc(Nc2ncc3c(n2)-c2ccc(Cl)cc2C(c2c(F)cccc2OC)=NC3)ccc1C(=O)O + NC1CCC(NC2CC2c2ccccc2)CC1 in the assay.
Solution: inactive

Problem: Would you mind telling me which call this test gave CC1COCCN1c1cc(-c2ccnn2C)c2ccnc(-c3ccn[nH]3)c2n1 (stereo unspecified) + NC1CCC(NC2CC2c2ccccc2)CC1 ?
Solution: inactive

Problem: Assay result, entry CC[C@@]1(O)C(=O)OCc2c1cc1n(c2=O)Cc2cc3c(CN(C)C)c(O)ccc3nc2-1 + NC1CCC(NC2CC2c2ccccc2)CC1 — outcome?
Solution: inactive

Problem: Hello, I am checking results. What call was entered for Nc1ncn(C2CC(O)C(CO)O2)c(=O)n1 (stereo unspecified) + NC1CC1c1ccc(-c2cccc(O)c2)cc1 ?
Solution: inactive

Problem: Assay result, entry CC1COCCN1c1cc(-c2ccnn2C)c2ccnc(-c3ccn[nH]3)c2n1 (stereo unspecified) + NC1CC1c1ccc(-c2cccc(O)c2)cc1 — outcome?
Solution: inactive

Problem: What was the test verdict on Cn1ncnc1C1c2n[nH]c(=O)c3cc(F)cc(c23)NC1c1ccc(F)cc1 (stereo unspecified) + NC1CCC(NC2CC2c2ccccc2)CC1 ?
Solution: inactive

Problem: For this compound, state the assay outcome: CC(C)CC(NC(=O)CNC(=O)c1cc(Cl)ccc1Cl)B1OC(=O)CC(CC(=O)O)(C(=O)O)O1 (stereo unspecified) + NC1CC1c1ccc(-c2cccc(O)c2)cc1
Solution: inactive

Problem: Could you kindly confirm the outcome this assay logged for Nc1ncn(C2CC(O)C(CO)O2)c(=O)n1 (stereo unspecified) + NC1CCC(NC2CC2c2ccccc2)CC1 ?
Solution: inactive

Problem: What did the test return for CC[C@@]1(O)C(=O)OCc2c1cc1n(c2=O)Cc2cc3c(CN(C)C)c(O)ccc3nc2-1 + NC1CC1c1ccc(-c2cccc(O)c2)cc1 ?
Solution: inactive

Problem: What was the test verdict on O=C(C=Cn1cnc(-c2cc(C(F)(F)F)cc(C(F)(F)F)c2)n1)NNc1cnccn1 + NC1CCC(NC2CC2c2ccccc2)CC1 ?
Solution: inactive
